# MEASURED ON: GST-tagged KRAS (amino acids 1-188) G12D binding to His-tagged SOS1 (Homo sapiens (Human), UniProt P01116, G12D)
# Sequence (P01116 other isoform, or with tags, fused parts or gaps G12D): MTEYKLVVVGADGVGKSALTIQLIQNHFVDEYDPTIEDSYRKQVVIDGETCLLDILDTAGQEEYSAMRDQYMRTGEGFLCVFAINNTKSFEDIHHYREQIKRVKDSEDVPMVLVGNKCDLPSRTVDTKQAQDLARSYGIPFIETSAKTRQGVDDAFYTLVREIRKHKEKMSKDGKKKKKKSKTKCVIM
# ASSAY DETAILS: KRAS G12D:SOS1 GDP TR-FRET assay
# MEASUREMENT PARAMETERS: GDP 10 μM; KRAS G12D 37.5 nM; SOS1 18 nM
hey, just use true (1) if measured IC50 is less than 700 nM, otherwise false (0)

{"columns": ["COMPOUND", "CLASSIFICATION"],
 "data": [
  ["Cc1cccc2cccc(N3CCc4c(nc(OC[C@@H]5CCCN5C)nc4N4C5CCC4C(N)C5)C3)c12 (some centres unmarked)", "false (0)"],
  ["CN1CCC[C@H]1COc1nc2c(c(N3C4CCC3CNC4)n1)CCN(c1cccc3cccc(Cl)c13)C2", "true (1)"],
  ["Cc1cccc2cccc(N3CCc4c(nc(OC[C@@H]5CCCN5C)nc4N4CC5CCC(C4)N5)C3)c12", "true (1)"],
  ["Cc1cccc2cccc(N3CCc4c(nc(OC[C@@H]5CCCN5C)nc4N4CC5CC4CN5)C3)c12 (some centres unmarked)", "false (0)"],
  ["CO[C@@H]1C[C@@H](COc2nc3c(c(N4CC5CCC(C4)N5)n2)CCN(c2cccc4cccc(Cl)c24)C3)N(C)C1", "true (1)"],
  ["CN1C[C@H](F)C[C@H]1COc1nc2c(c(N3CC4CCC(C3)N4)n1)CCN(c1cccc3cccc(Cl)c13)C2", "true (1)"],
  ["Cc1cccc2cccc(N3CCc4c(nc(OC[C@@H]5CCCN5C)nc4N4CC5CC(C4)N5)C3)c12", "false (0)"],
  ["Cc1cccc2cccc(N3CCc4c(nc(OC[C@@H]5CCCN5C)nc4N4CCNCC4)C3)c12", "false (0)"],
  ["CN1CCC[C@H]1COc1nc2c(c(N3CC4CCC(C3)N4)n1)CCN(c1cc(N)cc(Cl)c1C(F)(F)F)C2", "true (1)"],
  ["CN1CCC[C@H]1COc1nc2c(c(N3CC4CCC(C3)N4)n1)CCN(c1cccc3ccc(Cl)c(Cl)c13)C2", "true (1)"]
]}

----------
# MEASURED ON: GST-tagged WT KRAS (amino acids 1-188) binding to His-tagged SOS1 (Homo sapiens (Human), UniProt P01116)
# Sequence (P01116 other isoform, or with tags, fused parts or gaps): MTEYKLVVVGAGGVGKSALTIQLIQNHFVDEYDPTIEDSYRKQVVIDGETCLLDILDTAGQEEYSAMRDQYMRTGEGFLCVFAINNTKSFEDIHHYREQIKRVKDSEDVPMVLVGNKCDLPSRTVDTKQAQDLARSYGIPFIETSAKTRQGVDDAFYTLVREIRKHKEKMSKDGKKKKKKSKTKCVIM

{"columns": ["MOLECULE", "IC50"],
 "data": [
  ["CN1CCC[C@H]1COc1nc2c(c(N3CC4CCC(C3)N4)n1)CCN(c1cccc3cccc(Cl)c13)C2 [Example 7]", "17.2 µM"],
  ["CN1CCC[C@H]1COc1nc2c(c(N3CC4CCC(C3)N4)n1)CCN(c1cc(O)cc3ccccc13)C2 [Example 10]", "6.21 µM"],
  ["CN1CCC[C@H]1COc1nc2c(c(N3CC4CCC(C3)N4)n1)CCN(c1cccc3ccc(Cl)c(Cl)c13)C2 [Example 9]", "> 10 µM"],
  ["Cc1cccc2cccc(N3CCc4c(nc(OC[C@@H]5CCCN5C)nc4N4CC5CC(C4)N5)C3)c12 [Example 8]", "> 10 µM"],
  ["Cc1cccc2cccc(N3CCc4c(nc(OC[C@@H]5CCCN5C)nc4N4CC5CC4CN5)C3)c12 (some centres unmarked) [Example 4]", "> 50 µM"],
  ["CN1CCC[C@H]1COc1nc2c(c(N3CC4CCC(C3)N4)n1)CCN(c1cc(N)cc(Cl)c1Cl)C2 [Example 13]", "> 10 µM"],
  ["CO[C@@H]1C[C@@H](COc2nc3c(c(N4CC5CCC(C4)N5)n2)CCN(c2cccc4cccc(Cl)c24)C3)N(C)C1 [Example 14]", "> 10 µM"],
  ["CN1CCC[C@H]1COc1nc2c(c(N3CC4CCC(C3)N4)n1)CCN(c1cccc3ccc(F)c(Cl)c13)C2 [Example 11]", "3.62 µM"]
]}

----------
Listed compounds paired with reported IC50
# MEASURED ON: GST-tagged KRAS (amino acids 1-188) G12D binding to His-tagged SOS1 (Homo sapiens (Human), UniProt P01116, G12D)
# ASSAY DETAILS: KRAS G12D:SOS1 GDP TR-FRET assay
# MEASUREMENT PARAMETERS: GDP 10 μM; KRAS G12D 37.5 nM; SOS1 18 nM

{"columns": ["STRUCTURE SMILES STRING", "IC50 [nM]"],
 "data": [
  ["CN1CCC[C@H]1COc1nc2c(c(N3CC4CCC(C3)N4)n1)CCN(c1cc(N)cc(Cl)c1Cl)C2", 27],
  ["CN1CCC[C@H]1COc1nc2c(c(N3CC4CCC(C3)N4)n1)CCN(c1cccc3cccc(Cl)c13)C2", 59],
  ["CN1CCC[C@H]1COc1nc2c(c(N3CC4CCC(C3)N4)n1)CCN(c1cc(O)cc3ccccc13)C2", 22],
  ["CN1CCC[C@H]1COc1nc2c(c(N3CC4CCC(C3)N4)n1)CCN(c1cccc3ccc(F)c(Cl)c13)C2", 12]
]}
